Values from patent US20210024639A1

Molecular target: T1, native mouse MET on living mouse cells (mouse, UniProt P16056 25-1379)
T1 construct: whole, on cells; also called Mouse cells (MLP29)
Assay: flow cytometry, MLP29 cells
Method: We also analysed whether chimeric anti-MET antibodies bound to native human and mouse MET in living cells. […] Antibody binding to cells was analysed by flow cytometry using phycoerythrin-conjugated anti-human IgG1 antibodies (eBioscience) and a CyAn ADP analyser (Beckman Coulter). As a positive control for human MET binding, we used a commercial mouse anti-human MET antibody (R&D Systems) and phycoerythrin-conjugated anti-mouse IgG1 antibodies (eBioscience). […]
MEASURED_ATTRIBUTE: EMAX (% relative to control) (%)
Provide the reading as a plain figure in %.

Example entries begin here.
>>> reading("chimeric llama-human IgG1 mAb 71C3 (antibody, V domains shown) VH: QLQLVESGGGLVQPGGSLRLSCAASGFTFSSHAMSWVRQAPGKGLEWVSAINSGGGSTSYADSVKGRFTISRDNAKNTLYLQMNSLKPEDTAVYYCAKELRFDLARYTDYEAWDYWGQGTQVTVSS VL: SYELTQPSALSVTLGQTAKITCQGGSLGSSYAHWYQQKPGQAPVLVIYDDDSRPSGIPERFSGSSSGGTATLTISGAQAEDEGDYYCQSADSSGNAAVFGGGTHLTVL")
115
>>> reading("chimeric llama-human IgG1 mAb 74C8 (antibody, V domains shown) VH: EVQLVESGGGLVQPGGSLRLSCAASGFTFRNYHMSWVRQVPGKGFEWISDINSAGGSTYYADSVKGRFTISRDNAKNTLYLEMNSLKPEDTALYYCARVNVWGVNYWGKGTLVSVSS VL: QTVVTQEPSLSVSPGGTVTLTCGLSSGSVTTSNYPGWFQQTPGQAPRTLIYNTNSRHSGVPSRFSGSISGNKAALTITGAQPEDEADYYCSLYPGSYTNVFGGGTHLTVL")
73.8

We now examine a further binder.
Field EMAX (% relative to control) (entry chimeric llama-human IgG1 mAb 71G12 (antibody, V domains shown) VH: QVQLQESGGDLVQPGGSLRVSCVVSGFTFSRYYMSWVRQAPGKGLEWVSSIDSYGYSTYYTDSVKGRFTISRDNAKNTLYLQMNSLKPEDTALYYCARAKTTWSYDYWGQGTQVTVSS VL: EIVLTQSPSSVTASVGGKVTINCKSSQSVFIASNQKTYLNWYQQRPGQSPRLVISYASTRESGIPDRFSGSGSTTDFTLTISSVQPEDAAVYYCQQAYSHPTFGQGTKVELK ) reads 121
